experiment: SGF digest of 168 nutritive polypeptide library, intact protein by LC-MS/MS; format: in vitro ADME; conditions: 168 nutritive polypeptide library SGF digest, LC-MS/MS spectral counts
molecules and their reported % Intact Protein at 10 min
Number first, unit second: that is the form wanted.

{"molecule": "SEQID-00555: protein of the 168 nutritive polypeptide library (protein, Arthrospira platensis NIES-39, protein of the 168 nutritive polypeptide library) MQAQEIIRAIEQEEIESVKTNVQKESIPKIYVGDTVKVGVRITEGGKERIQPYQGTVIAMRNGGINETITVRRIFQGVGVERVFLLHSPRIASIKVIMRGKVRRAKLYYLRDRVGKATRVPQRFDRPL", "% Intact Protein at 10 min": "6.8%"}
{"molecule": "SEQID-00628: protein of the 168 nutritive polypeptide library (protein, listed as Saccharomyces cerevisiae, source: /note=\"strain ATCC 204508 / S288c\", protein of the 168 nutritive polypeptide library) MSDFQKEKVEEQEQQQQQIIKIRITLTSTKVKQLENVSSNIVKNAEQHNLVKKGPVRLPTKVLKISTRKTPNGEGSKTWETYEMRIHKRYIDLEAPVQIVKRITQITIEPGVDVEVVVASN", "% Intact Protein at 10 min": "0%"}

Value lookup for % Intact Protein at 10 min; key = SEQID-00502: protein of the 168 nutritive polypeptide library (protein, Glycine max, protein of the 168 nutritive polypeptide library) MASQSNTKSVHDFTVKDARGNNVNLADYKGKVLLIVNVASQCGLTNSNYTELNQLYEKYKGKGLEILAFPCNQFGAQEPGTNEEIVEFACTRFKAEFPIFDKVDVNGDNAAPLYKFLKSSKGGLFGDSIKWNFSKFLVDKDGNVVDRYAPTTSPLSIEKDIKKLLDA 9.7%
